Ref: patent US20180194862A1

Exercise: for every item that follows, state its recorded koff.
- assayedSystem: T1, soluble form of the extracellular domain of human CD40 (Creative BioMart) (human, UniProt P25942 21-193)
- T1 construct: Bought
- T1 sequence (P25942 21-193 limits assumed): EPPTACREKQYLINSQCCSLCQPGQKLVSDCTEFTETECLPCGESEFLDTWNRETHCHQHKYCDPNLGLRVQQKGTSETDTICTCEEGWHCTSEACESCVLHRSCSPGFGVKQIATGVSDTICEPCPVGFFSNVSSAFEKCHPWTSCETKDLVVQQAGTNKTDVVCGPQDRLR
- assayDetails: SPR, Ab captured
Numbers only, in s⁻¹.

Answered cases to consult:
binder	measurementKind	measuredNumber
huAb8-1 (antibody, human IgG1, V domains shown, human IgG1, kappa) VH: EVQLVQSGAEVKKPGSSVKVSCKASGYTFTDYYINWVRQAPGQGLEWIGWIFPGSGSVYCNEQFKGRATLTVDRSTSTAYMELSSLRSEDTAVYFCASSLGKFAYWGQGTLVTVSS VL: DIQMTQSPSSLSASVGDRVTITCKASQSVVTAVAWYQQKPGKSPKLLIYSASNRYTGVPSRFSGSGSGTDFTLTISSLQPEDFATYFCQQYSSYPYTFGGGTKVEIK	koff	0.0023
AD163.7.2 (antibody, V domains shown, mouse hybridoma antibody; also called muAb8) VH: QVQLQQSGPELVKSGASVKISCKASGYTFTDYYINWVKQRPGQGLEWIGWIFPGSGSVYCNEQFKGQATLTVDRSSSTAYMLLSSLTSEDSAVYFCASSLGKFAYWGQGTLVTVSA VL: DIVMTQSQKFMSTTVGDRVSITCKASQSVVTAVAWYQQKPGQSPKLLIYSASNRYTGVPDRFTGSGSGTDFALTIRTMQSEDLADYFCQQYSSYPYTFGGGTKLEIK	koff	0.0042
AD163.27.12 (antibody, V domains shown, mouse hybridoma antibody; also called muAb7) VH: QVQLQQPGAELVRPGSSVKLSCKASGYTFTSYWMHWVKQRPIQGLEWIGNIDPSNGETHYNQKFKDKATLTVDKSSSTAYMQLSSLTSEDSAVYYCARERIYYSGSTYDGYFDVWGTGTTVTVSS VL: QIVLTQSPAIMSASPGEKVTMTCSASSSLSYMHWYQQKSGTSPKRWIYDTSKLASGVPARFSGSGSGTSYSLTISSMEGEDGATYYCQQWSSNPWTFGGGTKLEIK	koff	0.0048
AD175.14.11 (antibody, V domains shown, mouse hybridoma antibody; also called muAb3) VH: EVQLQQSGPELVKPGASVKISCKASGYTFTDYYMNWVKQSHGKSLEWIGDINPNNGGTSYNQKFKGKATLTVDKSSSTAYMELRSLTSEDSAVYYCARRGGLGRGTYALDYWGQGTSVTVSS VL: DIQMTQTTSSLSASLGDRVTISCRASQDISNYLNWYQQKPDGTVKPLIYYTSRLHLGVPSRFSGSGSGTDYSLTISNLEQEDIATYFCQQGNTLPLTFGAGTKLELK	koff	0.012
AD165.1.2 (antibody, V domains shown, mouse hybridoma antibody; also called muAb5) VH: DVQLQESGPGLVEPSQSLFLTCSVTGYSITTNYNWNWIRQFPGNKLEWMGYIRHDGTNNYNPSLKNRISIIRDTPKNQFFLKLNSVTTEDTAIYFCTRLDYWGQGTSVTVSS VL: DAVMTQTPLSLPVSLGDQASISCRSSQSLENSYGNTFLNWFLQRPGQSPQLLIYRVSNRFCGVPDRFSGSGSGTDFTLKISRVEAEDLGIYFCLQVTHVPYTFGGGTKLEIK	koff	0.002
AD163.9.3 (antibody, V domains shown, mouse hybridoma antibody; also called muAb1) VH: QVQLQQPGAELVKPGASVKMSCKASGYTFTSYWITWVKQRPGQGLEWIGEINPGSGSTNYNEKFKSKATLTVDTSSSTAYMQLSSLTSEDSAVYYCARNRGTGDYWGQGTTLTVSS VL: DVVMTQTPLSLPVSLGDQASISCRSSQSLVHSYGNTYLHWYLQKPGQSPKFLIYKVSNRISGVPDRLSGSGSGTDFTLKISRVEPEDLGVYFCSQSTHVPYTFGGGTKLEIK	koff	0.016
AD163.10.7 (antibody, V domains shown, mouse hybridoma antibody; also called muAb4) VH: LVQPGGSLSLSCAASGFTFSDYYMSWVRQPPGKALEWLGFIRNKANGYTTEFSASVKGRFTISRDNSQSILYLQMNALRAEDSATYYCARYGGLRQGWYFDVWGTGTTVTVSS VL: DIQMTQTTSSLSASLGDRVTISCRASQDIRNYLNWYQQKPDGTVKLLIYYTSRLHSGVPSRFSGSGSGTDYSLTISNLEQEDIATYFCQQGKTLPWTFGGGSKLEMK	koff	0.17

Next binder, please.
*Q* So what does the record say about koff for AD164.14.6 (antibody, V domains shown, mouse hybridoma antibody; also called muAb9) VH: DVQLQESGPGLVKPSQSLSLTCSVTGYSITSNYYWNWIRQFPGNKLEWMGYIRYDGSNNYNPSLKNRISITRDTSKNQFFLKLNSVTTEDTATYYCARLDYWGQGTTLTVSS VL: DAVMTQTPLSLPVSLGDQASISCRSSQSLENTNGNTFLNWFLQKPGQSPQLLIYRVSNRFSGVPDRFSGSGSGTDFTLKISRVEAEDLGVYFCLQVTHVPFTFGSGTKLEIK ?
*A* 0.052
